- System: strain 21
- Measurement Description: MIC determination, broth microdilution (CLSI)
- Assay type: cell-based

Structure Smiles String: CC1(C)[C@H](NC(=O)/C(=N\OCCOc2ccc(C(=N)NCCN)cc2)c2csc(N)n2)C(=O)N1OS(=O)(=O)O
MIC: 0.5 µg/mL
//
Structure Smiles String: CC1(C)[C@H](NC(=O)/C(=N\OCCOc2cnc(C(=N)N)c(O)c2)c2csc(N)n2)C(=O)N1OS(=O)(=O)O
MIC: 0.5 µg/mL
//
Structure Smiles String: C[C@H]1[C@H](NC(=O)/C(=N\OCCCOc2ccc(C(=N)N)cc2)c2csc(N)n2)C(=O)N1S(=O)(=O)O
MIC: 2 µg/mL
//
Structure Smiles String: CC1(C)[C@H](NC(=O)/C(=N\OCCOc2ccc(C(=N)N)c(O)c2)c2csc(N)n2)C(=O)N1OS(=O)(=O)O
MIC: 0.25 µg/mL
